Target: CSF1R (Homo sapiens)
Construct: made in house
Sequence (P07333 20-972): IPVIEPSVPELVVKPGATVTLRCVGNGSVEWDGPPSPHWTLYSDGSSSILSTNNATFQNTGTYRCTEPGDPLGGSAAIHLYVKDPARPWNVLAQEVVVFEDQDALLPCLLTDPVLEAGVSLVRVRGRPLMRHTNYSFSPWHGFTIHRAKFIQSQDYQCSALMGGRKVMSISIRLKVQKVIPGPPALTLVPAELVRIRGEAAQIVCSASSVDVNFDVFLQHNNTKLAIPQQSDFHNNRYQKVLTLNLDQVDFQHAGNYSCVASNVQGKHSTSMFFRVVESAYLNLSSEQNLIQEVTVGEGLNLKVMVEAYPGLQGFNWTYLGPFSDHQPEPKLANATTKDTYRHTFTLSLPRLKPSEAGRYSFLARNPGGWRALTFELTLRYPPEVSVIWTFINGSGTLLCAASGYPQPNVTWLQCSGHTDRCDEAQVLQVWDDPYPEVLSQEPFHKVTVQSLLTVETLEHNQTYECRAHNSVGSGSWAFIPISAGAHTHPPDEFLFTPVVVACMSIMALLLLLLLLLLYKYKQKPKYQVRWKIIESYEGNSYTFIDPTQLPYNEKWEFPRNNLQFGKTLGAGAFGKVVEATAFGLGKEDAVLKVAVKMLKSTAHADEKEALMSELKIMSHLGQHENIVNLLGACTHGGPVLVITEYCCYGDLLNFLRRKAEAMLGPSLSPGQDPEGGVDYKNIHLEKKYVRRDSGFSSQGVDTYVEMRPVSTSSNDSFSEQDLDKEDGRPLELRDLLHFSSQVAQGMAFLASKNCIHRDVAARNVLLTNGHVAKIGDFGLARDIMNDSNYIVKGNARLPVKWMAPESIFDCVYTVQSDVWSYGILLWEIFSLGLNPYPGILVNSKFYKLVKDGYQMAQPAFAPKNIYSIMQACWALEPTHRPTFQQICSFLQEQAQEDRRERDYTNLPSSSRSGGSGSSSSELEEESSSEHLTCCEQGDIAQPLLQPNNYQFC
Assay: Binding constant (Kd) measurement, phage-displayed kinase competition binding assay, CSF1R
pKd: −log10 of the molar value. Counter-ions that a name gives are not always drawn.
quantity-kind: pKd

Completed entries (count: 5):
| compound | assayed-system | pKd |
| --- | --- | --- |
| CCN1CCN(C(=O)Cc2ccc3c(c2)sc2nc(-c4ccc(NC(=O)Nc5cc(C(C)(C)C)on5)cc4)cn23)CC1 [Compound C17, hydrochloride] | CSF1R (Homo sapiens) | 7.00 to 8.00 |
| O=C(Nc1ccc(-c2cn3c(n2)sc2cc(OCCN4CCOCC4)ccc23)cc1)Nc1ccc2c(c1)OCO2 [Compound F3] | CSF1R (Homo sapiens) | < 6.00 |
| CC(C)(C)c1cc(NC(=O)Nc2ccc(-c3cn4c(n3)sc3cc(CC(=O)N5CCOCC5)ccc34)cc2)no1 [Compound C18] | CSF1R (Homo sapiens) | 7.00 to 8.00 |
| CC(C)(C)c1cc(NC(=O)Nc2ccc(-c3cn4c(n3)sc3cc(CC(=O)NCCN5CCCCC5)ccc34)cc2)no1 [Compound C14, hydrochloride] | CSF1R (Homo sapiens) | 7.00 to 8.00 |
| CC(C)(C)c1cc(NC(=O)Nc2ccc(-c3cn4c(n3)sc3cc(CC(=O)NCCN5CCCC5)ccc34)cc2)no1 [Compound C15, hydrochloride] | CSF1R (Homo sapiens) | 7.00 to 8.00 |

// query Tell me its pKd given CC(C)(C)c1cc(NC(=O)Nc2ccc(-c3cn4c(n3)sc3cc(OCCCN5CCOCC5)ccc34)cc2)no1 [Compound B7, hydrochloride] as the entry.
// result 7.00 to 8.00

// query Tell me its pKd given O=C(CCc1ccc2c(c1)sc1nc(-c3ccc(NC(=O)N4CCOCC4)cc3)cn12)N1CCOCC1 [Compound E1] as the entry.
// result < 6.00

// query Tell me its pKd given CCN1CCN(Cc2ccc3c(c2)sc2nc(-c4ccc(NC(=O)Nc5cc(C(C)(C)C)on5)cc4)cn23)CC1 [Compound D9, hydrochloride] as the entry.
// result 7.00 to 8.00

// query Tell me its pKd given CC(C)(C)c1cc(NC(=O)Nc2ccc(-c3cn4c(n3)sc3cc(C(=O)NCCN5CCOCC5)ccc34)cc2)no1 [Compound C19, hydrochloride] as the entry.
// result 7.00 to 8.00

// query Tell me its pKd given CCN1CCN(CCc2ccc3c(c2)sc2nc(-c4ccc(NC(=O)Nc5cc(C(C)(C)C)on5)cc4)cn23)CC1 [Compound D7, hydrochloride] as the entry.
// result > 8.00

// query Tell me its pKd given CC(C)(C)c1cc(NC(=O)Nc2ccc(-c3cn4c(n3)sc3cc(CCN5CCCCC5)ccc34)cc2)no1 [Compound D6, hydrochloride] as the entry.
// result > 8.00

// query Tell me its pKd given CCOC(=O)c1ccc2c(c1)sc1nc(-c3cccc(NC(=O)Nc4cc(C(C)(C)C)on4)c3)cn12 [Compound B14] as the entry.
// result < 6.00

// query Tell me its pKd given CN(C(=O)Nc1cc(C(C)(C)C)on1)c1ccc(-c2cn3c(n2)sc2cc(CCCN4CCOCC4)ccc23)cc1 [Compound D2] as the entry.
// result 7.00 to 8.00

// query Tell me its pKd given CC(C)(C)c1cc(NC(=O)Nc2ccc(-c3cn4c(n3)sc3cc(CC(=O)NCCN5CCOCC5)ccc34)cc2)no1 [Compound C13, hydrochloride] as the entry.
// result 7.00 to 8.00

// query Tell me its pKd given CCN(CC)CCNC(=O)Cc1ccc2c(c1)sc1nc(-c3ccc(NC(=O)Nc4cc(C(C)(C)C)on4)cc3)cn12 [Compound C16, hydrochloride] as the entry.
// result 7.00 to 8.00

// query Tell me its pKd given CCOC(=O)c1ccc2c(c1)sc1nc(-c3ccc(NC(=O)Nc4cc(C(C)(C)C)on4)cc3)cn12 [Compound C26] as the entry.
// result 6.00 to 7.00

// query Tell me its pKd given CC(C)(C)c1cc(NC(=O)Nc2ccc(-c3cn4c(n3)sc3cc(CCC(=O)NCCN5CCCC5)ccc34)cc2)no1 [Compound C11, hydrochloride] as the entry.
// result > 8.00

// query Tell me its pKd given CC(C)(C)c1cc(NC(=O)Nc2ccc(-c3cn4c(n3)sc3cc(C(=O)N5CCNCC5)ccc34)cc2)no1 [Compound C24, hydrochloride] as the entry.
// result 7.00 to 8.00

// query Tell me its pKd given CC(C)[C@@H](N)C(=O)Oc1ccc2c(c1)sc1nc(-c3ccc(NC(=O)Nc4cc(C(C)(C)C)on4)cc3)cn12 [Compound B5] as the entry.
// result 7.00 to 8.00

// query Tell me its pKd given CCN1CCN(C(=O)CCc2ccc3c(c2)sc2nc(-c4ccc(NC(=O)Nc5cc(C(C)(C)C)on5)cc4)cn23)CC1 [Compound C5] as the entry.
// result 7.00 to 8.00

// query Tell me its pKd given CC(C)(C)c1cc(NC(=O)Nc2ccc(-c3cn4c(n3)sc3cc(C(=O)NCCN5CCCCC5)ccc34)cc2)no1 [Compound C20, hydrochloride] as the entry.
// result 7.00 to 8.00

Attribution: patent US8921546B2
